tested on: HIV-1; assay: Whole cell PBMC anti-HIV assay (human PBMCs, supernatant reverse transcriptase activity); assay type: cell-based; conditions: Human immunodeficiency virus 1, PBMC
Value type: IC50 (nM)
Numbers only, in nM.

Here are 2 compounds. What values of IC50 were reported for them?
1. Cc1ccnc2c1NC(=O)c1cccnc1N2C1CC1 [Nevirapine, reference compound]
2. Clc1ccccc1-c1nc2ccccn2c1NC1CCCCC1

A:
[33, 160]

* * *

biological target: HIV-1 reverse transcriptase (Human immunodeficiency virus type 1 group M subtype B (isolate HXB2) (HIV-1)); assay: Enzymatic assay against HIV-1 reverse transcriptase (sandwich-ELISA, ROCHE colorimetric reverse transcriptase kit); conditions: 4-fold serial dilutions
Please go through the items and note down their pIC50.
Answers are plain numbers, as −log10 of the molar value.

Cc1cccn2c(NC3CCCC3)c(-c3ccccc3Cl)nc12 [Compound 170]: 4.80

Here are 8 molecules. What values of pIC50 were reported for them?
1. Cc1ccc2nc(-c3ccccc3Cl)c(NC3CCCCC3)n2c1 [Compound 163]
2. Clc1ccccc1-c1nc2ccc3ccccc3n2c1NC1CCCCC1 [Compound 97]
3. Clc1ccccc1-c1nc2cccc(Cl)n2c1NC1CCCC1 [Compound 48]
4. Clc1ccccc1-c1nc2cccc(Br)n2c1NC1CCCCC1 [Compound 42]
5. N#Cc1cccc2nc(-c3ccccc3Cl)c(NC3CCCCC3)n12 [Compound 116]
6. Clc1ccc2nc(-c3ccccc3Cl)c(NC3CCCCC3)n2c1 [Compound 82]
7. Brc1ccccc1-c1nc2ccccn2c1NC1CCCCC1 [Compound 43]
8. N#Cc1ccc2nc(-c3ccccc3Cl)c(NC3CCCCC3)n2c1 [Compound 96]

A:
[5.27, 5.12, 5.29, 5.34, 5.46, 4.84, 5.00, 5.18]

Here are 5 molecules. What values of pIC50 were reported for them?
1. Cc1cccc2nc(-c3ccccc3Cl)c(NC3CCCCC3)n12 [Compound 166]
2. Cc1ccc(Cl)c(-c2nc3ccccn3c2NC2CCCCC2)c1F [Compound 74]
3. Cc1cccc2nc(-c3ccccc3Cl)c(NC3CCCC3)n12 [Compound 171]
4. Clc1ccccc1-c1nc2ccc(Br)cn2c1NC1CCCCC1 [Compound 99]
5. Fc1ccc2nc(-c3ccccc3Cl)c(NC3CCCCC3)n2c1 [Compound 81]

A:
[5.81, 4.05, 5.84, 4.91, 4.95]

Here are 2 molecules. What values of pIC50 were reported for them?
1. Clc1ccc(-c2nc3ccccn3c2NC2CCCCC2)c(Cl)c1 [Compound 89]
2. Clc1ccccc1-c1nc2cccc(Cl)n2c1NC1CCCCC1 [Compound 104]

A:
[4.66, 5.43]
